Tested on: P. falciparum 3D7 trophozoites
assayProcedure: Metabolomic fingerprint profiling LC-MS
Type: cell-based, Plasmodium falciparum
measurementContext: metabolite level change after treatment
Binning scheme for glutathione disulfide: low interval (below -0.5), middle interval (-0.5 to below -0.3), high interval (-0.3 or more)

Task: Which class holds Cc1ccc(N2C(=O)C3C(C2=O)C2(c4ccccc4)C(=O)C3(c3ccccc3)C(c3ccccc3)=C2c2ccccc2)cc1 (stereo not shown) ?
Result: middle interval

Task: Which class holds `Cc1cccc(Nc2nc(N)c3ccccc3n2)c1` ?
Result: low interval

Task: Which class holds CCCCCCOC(=O)C1=C(C)NC(=O)NC1c1ccccc1F (stereo not shown) ?
Result: high interval

Task: Which class holds `COc1ccc(-c2nc3cc(Cc4ccc5[nH]c(-c6ccc(OC)cc6)nc5c4)ccc3[nH]2)cc1` ?
Result: low interval

Task: Which class holds `CC(C)(C)c1ccc(O)c(CNC2CCCCC2)c1` ?
Result: high interval

Task: Which class holds `COc1ccc(C(=O)Nc2nonc2-c2ccc(OC)c(OC)c2)cc1Cl` ?
Result: high interval

Task: Which class holds `c1ccc2cc3c(Nc4ccc(N5CCOCC5)cc4)ccnc3cc2c1` ?
Result: high interval

Task: Which class holds `CCN(CC)CCNc1ccnc2cc(Cl)ccc12` ?
Result: low interval

Task: Which class holds COc1ccc2c(c1)OC(O)(C(F)(F)C(F)(F)F)CC2=O (stereo not shown) ?
Result: low interval

Task: Which class holds `CCN1CCN(Cc2ccc(NC(=O)c3cc4ccc5cccnc5c4[nH]3)cc2)CC1` ?
Result: middle interval

---

System: P. falciparum 3D7 trophozoites
assayProcedure: Metabolomic fingerprint profiling LC-MS
Type: cell-based, Plasmodium falciparum
Design: unit not given here
measurementContext: metabolite ADP-D-glucose, S2 Table Metabolomics
measuredParameter: ADP-D-glucose

Task: Look up ADP-D-glucose: CC1CN(C(=O)c2sc3ccccc3c2Cl)CC(C)O1 (centres unmarked) [MMV020492]
Result: 0.03984

Task: Look up ADP-D-glucose: O=C1C(O)=C([C@H]2CC[C@H](c3ccc(Cl)cc3)CC2)C(=O)c2ccccc21 [Atovaquone, reference compound]
Result: 0.08423

Task: Look up ADP-D-glucose: CCOC(=O)c1c(C)n(-c2ccc(Cl)cc2)c2ccc(OC(=O)C=Cc3ccccc3)cc12 [MMV666600]
Result: 0.3003

Task: Look up ADP-D-glucose: COc1ccc(-n2ccnc2SCC(=O)Nc2cc(C)ccc2C)c(OC)c1 [MMV019258]
Result: 0.3573

Task: Look up ADP-D-glucose: CCOc1ccc(-c2nonc2NC(=O)c2cccc(C)c2)cc1OCC [MMV665805]
Result: -0.07023

Task: Look up ADP-D-glucose: CCOc1cc2c(cc1OCC)C(c1cc(OC)c(O)cc1Cl)NCC2 (centres unmarked) [MMV008956]
Result: 0.1393

Task: Look up ADP-D-glucose: COc1ccccc1CNC(=O)CCn1c(=O)[nH]c2ccccc2c1=O [MMV665916]
Result: 0.1724

Task: Look up ADP-D-glucose: Cc1cc(Nc2ccc(Cl)cc2)n2nc(C(F)(F)F)nc2n1 [MMV011256]
Result: 0.5309

Task: Look up ADP-D-glucose: CCOC(=O)c1ccc2nc(-c3ccccc3)cc(O)c2c1 [MMV006457]
Result: 0.02112

Task: Look up ADP-D-glucose: Cc1ccc(Nc2nc(-c3ccccn3)cs2)cc1 [MMV007907]
Result: 0.03116

Task: Look up ADP-D-glucose: COc1ccc(-c2cc3c(SCC(=O)Nc4cc(C(F)(F)F)ccc4Cl)nccn3n2)cc1 [MMV396679]
Result: -0.06603
